# protocolText: Kinetic aqueous solubility of the compound by CLND method
# Type: physicochemical
# testParameters: read-out: Kinetic_solubility
# label = 1 if solubility kinetic >= 70 µM else 0

>>> class("O=c1nc(-c2ccccc2)c2cc(N3CCOCC3)ccc2[nH]1")
1
>>> class("Cc1ccc2[nH]c(=O)nc(-c3ccccc3)c2c1")
1
>>> class("O=c1nc(-c2ccccc2)c2cc(N3CCNCC3)ccc2[nH]1")
1
>>> class("O=c1nc(C2CCCCC2)c2cc(-c3cc[nH]n3)ccc2[nH]1")
0
>>> class("O=c1nc(-c2ccccc2)c2cc(-c3cc[nH]n3)ccc2[nH]1")
0
>>> class("O=c1nc(C2CCC2)c2cc(-c3cc[nH]n3)ccc2[nH]1")
1
>>> class("CN1CCN(c2ccc3[nH]c(=O)nc(-c4ccccc4)c3c2)CC1")
1
>>> class("Cc1ccccc1-c1nc(=O)[nH]c2ccc(-c3cc[nH]n3)cc12")
0

* * *

# Tested on: Trypanosoma brucei brucei
# protocolText: Antitrypanosomal activity against bloodstream form of Trypanosoma brucei brucei Lister 427 after 70 hrs by resazurin based fluorescence assay
# Type: functional
# testParameters: Lister 427, 70 h
quantityName: EC50

>>> val("O=c1nc(-c2ccccc2)c2cc(-c3ccncc3)ccc2[nH]1")
"840 nM"
